- study system: RET (658-1114) (Homo sapiens)
- Construct: 658-1114; expressed in transfected cells; host or cells: 293T.144 (293T cells, generated in-house)
- Sequence (P07949 658-1114): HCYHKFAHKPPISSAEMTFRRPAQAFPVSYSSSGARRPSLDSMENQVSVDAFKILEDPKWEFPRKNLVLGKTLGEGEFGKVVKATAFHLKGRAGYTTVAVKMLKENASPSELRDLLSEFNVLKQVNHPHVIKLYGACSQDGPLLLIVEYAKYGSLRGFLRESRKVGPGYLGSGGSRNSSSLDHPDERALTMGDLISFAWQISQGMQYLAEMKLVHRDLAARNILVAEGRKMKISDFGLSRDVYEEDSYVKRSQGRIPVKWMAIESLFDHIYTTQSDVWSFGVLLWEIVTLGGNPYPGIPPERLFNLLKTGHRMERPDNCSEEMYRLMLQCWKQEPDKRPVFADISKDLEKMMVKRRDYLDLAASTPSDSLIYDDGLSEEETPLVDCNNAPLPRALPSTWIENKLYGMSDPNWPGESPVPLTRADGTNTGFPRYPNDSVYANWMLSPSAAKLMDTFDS
- assay name: HiBiT-Degradation, RET wild-type degradation assay (Nano-Glo HiBiT Lytic), 293T.144 cells
- Type: cell-based
- Protocol: Dulbecco's modified Eagle medium (DMEM) no-phenol red media and fetal bovine serum (FBS) were purchased from Gibco (Grand Island, NY, USA). […] RET wild-type (WT) and G810R degradation were assessed using the Nano-Glo® HiBiT Lytic assay (Promega, Medison, WI, USA). […] Luminescence signal was measured using an EnVision™ Multimode plate reader (Perkin Elmer, Santa Clara, CA, USA). […]
observed property: 293T.144 RET (658-1114) 6.0 hours (IP) [nM]

Solved cases (5 shown):
compound: COc1cc(N2CCN([C@H]3CC[C@H](n4cc(-c5cn6ncc(C#N)c6c(-c6ccc(N7C[C@H]8COC[C@@H](C7)N8Cc7ccc(F)cc7)nc6)n5)cn4)CC3)CC2)c(F)cc1NC1CCC(=O)NC1=O (relative stereo) [Compound 164]
study system: RET (658-1114) (Homo sapiens)
experimental result: ++++ (<50 nM = ++++)
--
compound: N#Cc1cnn2cc(-c3cnn(C4CCN(C(=O)CC5(O)CCN(c6ccc(NC7CCC(=O)NC7=O)cc6F)CC5)CC4)c3)nc(-c3ccc(N4CCN(C(=O)C5CCC5)CC4)nc3)c12 (stereo not drawn) [Compound 112]
study system: RET (658-1114) (Homo sapiens)
experimental result: ++++ (<50 nM = ++++)
--
compound: CCC1(C(=O)NC(C)C)CCN(c2ccc(-c3nc(-c4cnn(C5CCN(C(=O)CC6(O)CCN(c7cc(OC)c(NC8CCC(=O)NC8=O)cc7F)CC6)CC5)c4)cn4ncc(C#N)c34)cn2)CC1 (stereo not drawn) [Compound 91]
study system: RET (658-1114) (Homo sapiens)
experimental result: ++++ (<50 nM = ++++)
--
compound: CCC1(C(=O)NC(C)(C)C)CCN(c2ccc(-c3nc(-c4cnn([C@H]5CC[C@H](N6CCC(c7ccc(N[C@H]8CCC(=O)NC8=O)cc7F)CC6)CC5)c4)cn4ncc(C#N)c34)cn2)CC1 (single isomer, unassigned) [Compound 145]
study system: RET (658-1114) (Homo sapiens)
experimental result: ++++ (<50 nM = ++++)
--
compound: CCC1(C(=O)NC(C)C)CCN(c2ccc(-c3nc(-c4ccc(N5CCN(C(=O)CC6(O)CCN(c7ccc8c(N9CCC(=O)NC9=O)nn(C)c8c7)CC6)CC5)cc4)cn4ncc(C#N)c34)cn2)CC1 [Compound 173]
study system: RET (658-1114) (Homo sapiens)
experimental result: ++++ (<50 nM = ++++)

Measured 293T.144 RET (658-1114) 6.0 hours (IP) [nM] of N#Cc1cnn2cc(-c3cnn([C@H]4CC[C@H](N5CCN(c6ccc(N[C@H]7CCC(=O)NC7=O)cc6F)CC5)CC4)c3)nc(-c3ccc(N4CC5COCC(C4)N5Cc4ccccn4)nc3)c12 (single isomer, unassigned) [Compound 155] : ++++ (<50 nM = ++++)

Measured 293T.144 RET (658-1114) 6.0 hours (IP) [nM] of CCC1(C(=O)NC2CCC2)CCN(c2ccc(-c3nc(-c4cnn(C5CCN([C@H]6CCN(c7ccc(N[C@H]8CCC(=O)NC8=O)cc7F)CC6(F)F)CC5)c4)cn4ncc(C#N)c34)cn2)CC1 (single isomer, unassigned) [Compound 191] : ++++ (<50 nM = ++++)

Measured 293T.144 RET (658-1114) 6.0 hours (IP) [nM] of COc1ccc(CN2C3COCC2CN(c2ccc(-c4nc(-c5cnn([C@H]6CC[C@H](N7CCN(c8cc(OC)c(NC9CCC(=O)NC9=O)cc8F)CC7)CC6)c5)cn5ncc(C#N)c45)cn2)C3)cn1 (stereo partly drawn) [Compound 165] : ++++ (<50 nM = ++++)

Measured 293T.144 RET (658-1114) 6.0 hours (IP) [nM] of CCC1(C(=O)NC(C)C)CCN(c2ccc(-c3nc(-c4cnn(C5CCN(C(=O)CN6C7CCC6CC(c6ccc(NC8CCC(=O)NC8=O)cc6F)C7)CC5)c4)cn4ncc(C#N)c34)cn2)CC1 (stereo not drawn) [Compound 94] : ++++ (<50 nM = ++++)
